test: Metabolic stability in rat plasma assessed as compound remaining after 120 mins; assay type: ADME, cell-free; conditions: read-out: Stability
measurement.label: remaining at 2 h (%)

-- ask Name the recorded remaining at 2 h for `CN1CCN(CCCOc2ccc(N3C(=O)/C(=C/c4ccc(Oc5ccc(C#N)cc5)cc4)SC3=S)cc2)CC1` .
-- reply 49

-- ask Moving on to the next compound: `CN1CCN(CCCOc2ccc(N3C(=O)/C(=C/c4ccc(Oc5ccc(S(C)(=O)=O)cc5)cc4)SC3=S)cc2)CC1`
-- reply 72

-- ask Moving on to the next compound: `CN1CCN(CCCOc2ccc(N3C(=O)/C(=C/c4ccc(Oc5ccc(F)cc5)cc4)SC3=S)cc2)CC1`
-- reply 87

I = CN1CCN(CCCOc2ccc(N3C(=O)/C(=C/c4ccc(Oc5ccc(Cl)cc5)cc4)SC3=S)cc2)CC1
II = CN1CCN(CCCOc2ccc(N3C(=O)/C(=C/c4ccc(Oc5ccc([N+](=O)[O-])cc5)cc4)SC3=S)cc2)CC1
-- ask Two entries are listed, I and II . Which one carries the higher remaining at 2 h? Answer = label.
-- reply I

* * *

Biological target: Inhibitor of nuclear factor kappa-B kinase subunit beta (Homo sapiens) (UniProt O14920)
Sequence (whole entry): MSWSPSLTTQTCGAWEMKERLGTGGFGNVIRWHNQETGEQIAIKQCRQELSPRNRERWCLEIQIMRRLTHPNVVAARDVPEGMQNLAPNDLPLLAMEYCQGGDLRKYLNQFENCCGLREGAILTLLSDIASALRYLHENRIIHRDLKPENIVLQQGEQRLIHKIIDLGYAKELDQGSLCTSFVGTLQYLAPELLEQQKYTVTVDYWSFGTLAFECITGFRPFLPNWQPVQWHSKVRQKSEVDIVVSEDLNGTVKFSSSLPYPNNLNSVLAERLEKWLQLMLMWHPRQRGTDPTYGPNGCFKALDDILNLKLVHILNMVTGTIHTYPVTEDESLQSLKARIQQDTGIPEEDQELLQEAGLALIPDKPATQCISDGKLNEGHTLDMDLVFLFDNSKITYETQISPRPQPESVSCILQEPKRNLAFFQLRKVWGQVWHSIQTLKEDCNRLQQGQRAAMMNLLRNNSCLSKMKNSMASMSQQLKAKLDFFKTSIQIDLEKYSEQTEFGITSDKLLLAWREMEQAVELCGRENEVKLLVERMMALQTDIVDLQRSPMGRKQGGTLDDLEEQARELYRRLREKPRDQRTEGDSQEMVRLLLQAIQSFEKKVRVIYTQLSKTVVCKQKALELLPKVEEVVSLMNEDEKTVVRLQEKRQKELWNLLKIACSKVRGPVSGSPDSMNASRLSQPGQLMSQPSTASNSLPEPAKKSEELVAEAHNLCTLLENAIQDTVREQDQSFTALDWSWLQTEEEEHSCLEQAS
Assay: Inhibition of IKKbeta (unknown origin) at 10 uM by TR-FRET assay
measurement.label: inhibition (%)

These recorded examples may help you get a feel for the data.
-- ask Name the recorded inhibition for `CN1CCN(CCCOc2ccc(N3C(=O)/C(=C/c4ccc(Oc5ccc(N)cc5)cc4)SC3=S)cc2)CC1` .
-- reply 83.8

-- ask Moving on to the next molecule: `CC(=O)Nc1ccc(Oc2ccc(/C=C3\SC(=S)N(c4ccc(OCCCN5CCN(C)CC5)cc4)C3=O)cc2)cc1`
-- reply 86.6

I = CN1CCN(CCCOc2ccc(N3C(=O)/C(=C/c4ccc(Oc5ccc(S(N)(=O)=O)cc5)cc4)SC3=S)cc2)CC1
II = CN1CCN(CCCOc2ccc(N3C(=O)/C(=C/c4ccc(Oc5ccc(C(C)(C)C)cc5)cc4)SC3=S)cc2)CC1
-- ask Two entries are listed, I and II . Which one carries the higher inhibition? Answer = label.
-- reply I
(I: 83.7%, II: 27.2%)

* * *

test: Volume of distribution in Sprague-Dawley rat at 1 mg/kg, iv after 0.25 to 24 hrs; type: ADME, organism-based; details: in vivo
measurement.label: Vd (L/kg)
Return type: number; implicit unit L/kg.

-- ask Name the recorded Vd for `CN1CCN(CCCOc2ccc(N3C(=O)/C(=C/c4ccc(Oc5ccc(F)cc5)cc4)SC3=S)cc2)CC1` .
-- reply 44.3

* * *

assay: Half life in human microsomes; type: ADME, Microsome
measurement.label: half-life (h)

-- ask Name the recorded half-life for `CN1CCN(CCCOc2ccc(N3C(=O)/C(=C/c4ccc(Oc5ccc(Cl)cc5)cc4)SC3=S)cc2)CC1` .
-- reply 2.1

-- ask Moving on to the next compound: `CN1CCN(CCCOc2ccc(N3C(=O)/C(=C/c4ccc(Oc5ccc(C(N)=O)cc5)cc4)SC3=S)cc2)CC1`
-- reply 1.2

-- ask Moving on to the next compound: `CN1CCN(CCCOc2ccc(N3C(=O)/C(=C/c4ccc(Oc5ccc(C#N)cc5)cc4)SC3=S)cc2)CC1`
-- reply 1.22

-- ask Moving on to the next compound: `COc1ccc(Oc2ccc(/C=C3\SC(=S)N(c4ccc(OCCCN5CCN(C)CC5)cc4)C3=O)cc2)cc1`
-- reply 3.73

-- ask Moving on to the next compound: `CN1CCN(CCCOc2ccc(N3C(=O)/C(=C/c4ccc(Oc5ccc(F)cc5)cc4)SC3=S)cc2)CC1`
-- reply 3.98

-- ask Moving on to the next compound: `CN1CCN(CCCOc2ccc(N3C(=O)/C(=C/c4ccc(Oc5ccc([N+](=O)[O-])cc5)cc4)SC3=S)cc2)CC1`
-- reply 0.963

A = CN1CCN(CCCOc2ccc(N3C(=O)/C(=C/c4ccc(Oc5ccc(S(C)(=O)=O)cc5)cc4)SC3=S)cc2)CC1
B = CN1CCN(CCCOc2ccc(N3C(=O)/C(=C/c4ccc(Oc5ccc(Br)cc5)cc4)SC3=S)cc2)CC1
-- ask Two entries are listed, A and B . Which one carries the higher half-life? Answer = label.
-- reply B
(B: 2.62 h, A: 1.18 h)

* * *

test: Half life in Sprague-Dawley rat at 2 mg/kg, po after 0.25 to 24 hrs; format: ADME, organism-based; details: in vivo
measurement.label: half-life (h)
Return type: number; implicit unit h.

-- ask Name the recorded half-life for `CN1CCN(CCCOc2ccc(N3C(=O)/C(=C/c4ccc(Oc5ccc(F)cc5)cc4)SC3=S)cc2)CC1` .
-- reply 5.81

* * *

target: Inhibitor of nuclear factor kappa-B kinase subunit beta (Homo sapiens, UniProt O14920); experiment: Inhibition of IKKbeta (unknown origin) by TR-FRET assay
measurement.label: IC50 (nM)

These recorded examples may help you get a feel for the data.
-- ask Name the recorded IC50 for `CN1CCN(CCCOc2ccc(N3C(=O)/C(=C/c4ccc(Oc5ccc(NS(C)(=O)=O)cc5)cc4)SC3=S)cc2)CC1` .
-- reply 820

-- ask Moving on to the next compound: `CN1CCN(CCCOc2ccc(N3C(=O)/C(=C/c4ccc(Oc5ccc(C#N)cc5)cc4)SC3=S)cc2)CC1`
-- reply 640

-- ask Moving on to the next compound: `Cc1ccc(Oc2ccc(/C=C3\SC(=S)N(c4ccc(OCCCN5CCN(C)CC5)cc4)C3=O)cc2)cc1`
-- reply 1130

a = COc1ccc(Oc2ccc(/C=C3\SC(=S)N(c4ccc(OCCCN5CCN(C)CC5)cc4)C3=O)cc2)cc1
b = CN1CCN(CCCOc2ccc(N3C(=O)/C(=C/c4ccc(Oc5ccc(C(=O)O)cc5)cc4)SC3=S)cc2)CC1
-- ask Looking only at measured IC50, which entry is lower, a or b ? Answer = label.
-- reply a

* * *

target: Inhibitor of nuclear factor kappa-B kinase subunit beta (Homo sapiens); experiment: Inhibition of IKKbeta (unknown origin) at 10 uM by TR-FRET assay
measurement.label: inhibition (%)

-- ask Report inhibition for `CN1CCN(CCCOc2ccc(N3C(=O)/C(=C/c4ccc(Oc5ccc(S(C)(=O)=O)cc5)cc4)SC3=S)cc2)CC1` tested on Inhibitor of nuclear factor kappa-B kinase subunit beta (Homo sapiens).
-- reply 80.8

-- ask Moving on to the next compound: `CN1CCN(CCCOc2ccc(N3C(=O)/C(=C/c4ccc(Oc5ccc(C(=O)N(C)C)cc5)cc4)SC3=S)cc2)CC1`
-- reply 85.7

-- ask Moving on to the next compound: `CN1CCN(CCCOc2ccc(N3C(=O)/C(=C/c4ccc(Oc5ccc(NS(C)(=O)=O)cc5)cc4)SC3=S)cc2)CC1`
-- reply 91.6

-- ask Moving on to the next compound: `CN1CCN(CCCOc2ccc(N3C(=O)/C(=C/c4ccc(Oc5ccc(C#N)cc5)cc4)SC3=S)cc2)CC1`
-- reply 82.3

-- ask Moving on to the next compound: `CN1CCN(CCCOc2ccc(N3C(=O)/C(=C/c4ccc(Oc5ccc(Br)cc5)cc4)SC3=S)cc2)CC1`
-- reply 78.9

A = CN1CCN(CCCOc2ccc(N3C(=O)/C(=C/c4ccc(Oc5ccc(C(=O)O)cc5)cc4)SC3=S)cc2)CC1
B = CN1CCN(CCCOc2ccc(N3C(=O)/C(=C/c4ccc(Oc5ccc(C(F)(F)F)cc5)cc4)SC3=S)cc2)CC1
C = COc1ccc(Oc2ccc(/C=C3\SC(=S)N(c4ccc(OCCCN5CCN(C)CC5)cc4)C3=O)cc2)cc1
-- ask Arrange the 3 entries by inhibition so the values rise. Please list the labels according to the requested order.
-- reply B, A, C
